Target: full-length recombinant human FYN A (Homo sapiens (Human))
Assay: ADP-Glo Kinase Assay of FYN kinase inhibition
Format: biochemical
Details: primary screen, initial compounds
OBSERVABLE: IC50 (µM)
The reply should be a number in µM, with the unit left off.

Example cases with answers are listed next.
STRUCTURE_SMILES_STRING	VALUE_UNITS	IC50
CN(C)C(=O)c1ccc(-c2ccnc3[nH]nc(-c4cccc(F)c4)c23)cc1	µM	3.86
O=C(NCCO)c1cccc(-c2ccc3ncc(-c4ccc5c(c4)OCO5)n3n2)c1	µM	0.367

Next:
So what does the record say about IC50 for `COc1cc(-c2cc(-c3ccc(C)cc3)cnc2N)ccc1O` ?
4.34

====

Reported IC50 values are given for each entry in this list.
Biological target: full-length recombinant human FYN A (Homo sapiens (Human), UniProt P06241)
Sequence (P06241 whole entry): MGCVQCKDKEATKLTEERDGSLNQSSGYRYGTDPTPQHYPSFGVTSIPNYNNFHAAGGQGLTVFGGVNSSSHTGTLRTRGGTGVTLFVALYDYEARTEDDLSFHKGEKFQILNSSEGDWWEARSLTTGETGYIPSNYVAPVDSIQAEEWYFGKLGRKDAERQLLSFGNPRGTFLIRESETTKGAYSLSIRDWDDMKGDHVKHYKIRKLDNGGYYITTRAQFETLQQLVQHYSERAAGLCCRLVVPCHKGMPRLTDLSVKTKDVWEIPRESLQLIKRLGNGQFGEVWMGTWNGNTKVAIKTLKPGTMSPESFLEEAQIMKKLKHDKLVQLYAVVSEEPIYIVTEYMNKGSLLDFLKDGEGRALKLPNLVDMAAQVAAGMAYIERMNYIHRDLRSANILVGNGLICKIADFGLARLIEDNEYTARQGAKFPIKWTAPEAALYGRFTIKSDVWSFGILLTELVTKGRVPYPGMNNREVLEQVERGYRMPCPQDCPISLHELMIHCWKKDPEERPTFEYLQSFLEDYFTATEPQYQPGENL
Assay: ADP-Glo Kinase Assay of FYN kinase inhibition
Format: biochemical
Conditions: primary screen, initial compounds
The reply should be a number in nM, with the unit left off.

MOLECULE	IC50, nM
CC(=O)c1cccc(-c2cnc3c(NC=O)cc(-c4ccc(C(=O)N5CCOCC5)cc4)cn23)c1	2990
COc1cncc(-c2cnn3ccc(Nc4ccc(N5CCOCC5)cc4)nc23)c1	2250
COc1ccc(-c2cnc3sc(NC4CCC(O)CC4)nn23)cn1 (stereo not shown)	1610

So what does the record say about IC50 for `COc1ccc(-c2cnc3ccc(NCc4cccc(Cl)c4)nn23)cn1` ?
8340

====

Biological target: full-length recombinant human FYN A (Homo sapiens (Human))
Assay: ADP-Glo Kinase Assay of FYN kinase inhibition
Assay type: biochemical
Conditions: primary screen, initial compounds
Reported IC50 values are given for each entry in this list.
The reply should be a number in µM, with the unit left off.

Example cases with answers are listed next.
STRUCTURE_SMILES_STRING	OBSERVABLE	VALUE_UNITS	NUMERIC_RESULT
COc1cccc(-c2cnc3ccc(NCc4cccs4)nn23)c1	IC50	µM	2.95
NC(=O)c1cccc(-c2cnc3sc(NCc4ccco4)nn23)c1	IC50	µM	1.23
Cc1ccc(Nc2ccn3ncc(-c4cccc(O)c4)c3n2)cc1NS(C)(=O)=O	IC50	µM	3.17
OCCCNc1ccc2ncc(-c3cccc(C(F)(F)F)c3)n2n1	IC50	µM	3.41

So what does the record say about IC50 for `c1csc(-c2ccc3ncc(-c4cccs4)n3n2)c1` ?
4.89

So what does the record say about IC50 for `OCc1ccc(-c2ccnc3[nH]nc(-c4ccc5c(c4)OCO5)c23)cc1` ?
4.64

So what does the record say about IC50 for `CC(=O)Nc1ccc(-c2ccc3ncc(-c4cccc(C(=O)NCCN(C)C)c4)n3n2)cc1` ?
0.983

So what does the record say about IC50 for `COc1cccc(-c2ccc3c(-c4ccc(C(=O)NCCCN(C)C)cc4)n[nH]c3n2)c1F` ?
7.34

So what does the record say about IC50 for `COc1ccc(-c2cnc3c(NC(C)=O)cc(-c4cccc(NC(C)=O)c4)cn23)cc1OC` ?
1.6

So what does the record say about IC50 for `CNc1ccc2ncc(-c3ccc(OC)cc3)n2n1` ?
4.16

====

Target: full-length recombinant human FYN A (Homo sapiens (Human), UniProt P06241)
Assay: ADP-Glo Kinase Assay of FYN kinase inhibition
Type: biochemical
Conditions: primary screen, initial compounds
OBSERVABLE: IC50

Example cases with answers are listed next.
COMPOUND	RESULT
COc1cc(-c2cc(-c3ccccc3)cnc2N)cc(OC)c1OC [382_0087_0061]	893 nM
COc1cncc(-c2cnc3sc(NCc4cccs4)nn23)c1 [Compound 581]	729 nM

Next:
So what does the record say about IC50 for O=C(NCCO)c1cccc(-c2cn3c(-c4ccc(Oc5ccccc5)cc4)cnc3cn2)c1 [Compound 217] ?
1480 nM

====

Biological target: full-length recombinant human FYN A (Homo sapiens (Human))
Experiment: ADP-Glo Kinase Assay of FYN kinase inhibition
Format: biochemical
Settings: primary screen, initial compounds
Reported IC50 values are given for each entry in this list.
// unit must come after the numeric part

Example cases with answers are listed next.
STRUCTURE_SMILES_STRING	SYSTEM_TESTED	IC50
CNc1ccc2ncc(-c3cccc(C(=O)N(C)C)c3)n2n1	full-length recombinant human FYN A (Homo sapiens (Human))	2940 nM
c1ccc(-c2ccc3ncc(-c4cccnc4)n3n2)cc1	full-length recombinant human FYN A (Homo sapiens (Human))	1940 nM
COc1ccc(CNc2ccc3ncc(-c4ccc(O)c(OC)c4)n3n2)cc1	full-length recombinant human FYN A (Homo sapiens (Human))	4010 nM
COc1ccccc1-c1ccc2ncc(-c3cccc(C(C)=O)c3)n2n1	full-length recombinant human FYN A (Homo sapiens (Human))	2330 nM
CN1CCN(c2ccc(-c3cn4c(-c5ccc(Oc6ccccc6)cc5)cnc4cn3)cn2)CC1	full-length recombinant human FYN A (Homo sapiens (Human))	2130 nM

So what does the record say about IC50 for `CN(C)CCNC(=O)c1cccc(-c2cnc3ccc(-c4cccc(Oc5ccccc5)c4)nn23)c1` ?
19200 nM

So what does the record say about IC50 for `Oc1ccc(-c2cnc3cnc(-c4cnn(Cc5ccccc5)c4)cn23)cc1` ?
6620 nM

So what does the record say about IC50 for `CC(=O)Nc1cccc(-c2cnc3sc(NCc4cccs4)nn23)c1` ?
3930 nM

So what does the record say about IC50 for `COc1ccc(-c2cnc(N)c(-c3cccc(O)c3)c2)cc1OC` ?
2000 nM

So what does the record say about IC50 for `Nc1ccc(-c2cn3c(-c4cccc(O)c4)cnc3cn2)cn1` ?
2890 nM

So what does the record say about IC50 for `CS(=O)(=O)Nc1cccc(-c2ccc3ncc(-c4ccncc4)n3n2)c1` ?
298 nM

====

Target: full-length recombinant human FYN A (Homo sapiens (Human), UniProt P06241)
Test: ADP-Glo Kinase Assay of FYN kinase inhibition
Assay type: biochemical
Conditions: primary screen, initial compounds
Reported IC50 values are given for each entry in this list.
The reply should be a number in nM, with the unit left off.

Example cases with answers are listed next.
MOLECULE	SYSTEM_TESTED	IC50 / nM
OCc1ccc(-c2ccnc3[nH]nc(-c4ccccc4)c23)cc1 [Compound 503]	full-length recombinant human FYN A (Homo sapiens (Human), UniProt P06241)	7110
CNC(=O)c1cccc(-c2ccc3ncc(-c4cccc(C(C)=O)c4)n3n2)c1 [Compound 386]	full-length recombinant human FYN A (Homo sapiens (Human), UniProt P06241)	1720
CS(=O)(=O)c1ccc(-c2ccc3ncc(-c4cccc(CO)c4)n3n2)cc1 [Compound 338]	full-length recombinant human FYN A (Homo sapiens (Human), UniProt P06241)	3040

So what does the record say about IC50 for OCc1ccc(-c2cnc3ccc(-c4ccc(F)cc4)nn23)cc1 [Compound 398] ?
2940

So what does the record say about IC50 for CC(=O)Nc1cccc(-c2ccc3ncc(-c4cccc(C(C)=O)c4)n3n2)c1 [Compound 281] ?
620

So what does the record say about IC50 for COc1cc(-c2cnn3ccc(NCc4cccnc4)nc23)cc(OC)c1OC [294_4003_0087] ?
2350

====

Reported IC50 values are given for each entry in this list.
Target: full-length recombinant human FYN A (Homo sapiens (Human))
Assay: ADP-Glo Kinase Assay of FYN kinase inhibition
Assay type: biochemical
Details: primary screen, initial compounds
The reply should be a number in nM, with the unit left off.

STRUCTURE_SMILES_STRING	VALUE_UNITS	IC50
O=C(NCCO)c1ccc(-c2cn3c(-c4ccc(O)cc4)cnc3cn2)cc1	nM	641

So what does the record say about IC50 for `COc1cccc(-c2cnc(N)c(-c3cc(OC)c(OC)c(OC)c3)c2)c1` ?
9500

So what does the record say about IC50 for `CN(C)CCNC(=O)c1cccc(-c2cnc3ccc(-c4cccc(CO)c4)nn23)c1` ?
816

====

Reported pIC50 values are given for each entry in this list.
Biological target: full-length recombinant human FYN A (Homo sapiens (Human), UniProt P06241)
Assay: ADP-Glo Kinase Assay of FYN kinase inhibition
Assay type: biochemical
Conditions: primary screen, initial compounds
# pIC50 = -log10(concentration in molar units)

STRUCTURE_SMILES_STRING	pIC50
COc1ccccc1-c1n[nH]c2nccc(-c3cccc(C(=O)NCCN(C)C)c3)c12	5.31
CC(=O)Nc1cc(-c2ccc(N)cc2)cn2c(-c3ccc(F)cc3)cnc12	5.28
COc1ccc(-c2cnc3ccc(-c4cccc(F)c4)nn23)cc1OC	5.98
COc1ccc(-c2cc(NC(C)=O)c3ncc(-c4cccc(C(C)=O)c4)n3c2)c(OC)c1	5.60
c1csc(-c2cn3c(-c4ccncc4)cnc3cn2)c1	5.25

Next:
So what does the record say about pIC50 for `c1ccc(-c2ccc3ncc(-c4ccc5c(c4)OCO5)n3n2)cc1` ?
5.51
